Assay: Drug repurposing screens with cells derived from glioblastoma tumor samples (AID 1345199); also: % is scaled to controls: 0 for no effect and ±100 for the full control effect; nearly all actives have a fitted effect of over 40% in size
Conditions: GBM patient neurospheres viability, ATP luminescence, 48 h; at 91.6 µM (top of the series); tumour line B
Inconclusive results are not listed. The source made the active and inactive calls. Calls follow the shape of the dose curve; as a rule, active = well fitted inhibition curve with a large enough effect; inconclusive = small, poorly fitted or top-dose-only effect; inactive = flat fitted curve, though single readings scatter.
test readout: activity, negative = cell killing

Observe how each entry below is paired with its result.
1) CN1CC[C@]23c4c5ccc(O)c4O[C@H]2[C@@H](O)CC[C@H]3[C@H]1C5; -3.58% (inactive)
2) CC(Cc1ccccc1)NCCn1cnc2c1c(=O)n(C)c(=O)n2C (stereo not drawn); -19.2% (inactive)

Note: attention shifts to another entry.
Measured activity, negative = cell killing, `C[C@]12CCC(=O)C=C1CC[C@@H]1[C@H]3CC[C@](C)(O)[C@@]3(C)CC[C@@H]12` : -15.6% (inactive)

====

Assay: qHTS assay for cell viability of HEK293 cells (AID 743288); also: % is scaled to controls: 0 for no effect and ±100 for the full control effect; nearly all actives have a fitted effect of over 50% in size
Settings: ATP luminescence (CellTiter-Glo), 18 h, stronger effect = lower value
Records with an inconclusive call do not appear.
test readout: max response (%)
Expressed in %, but write only the number.

Observe how each entry below is paired with its result.
1) CC(C)c1cccc(C(C)C)c1O; -1.26
2) Clc1ccc(C(c2ccc(Cl)cc2)C(Cl)(Cl)Cl)cc1; -17.1
3) Nc1ccccc1; -4.37
4) Oc1ccc(Cl)cc1; -5.89

Measured max response, `COc1cc(OC)c(OC)cc1C=O` : -1.47

====

System: MKL-2
Assay: qHTS assay to identify novel small-molecules to repurpose for Merkel cell carcinoma treatment (AID 1296009); also: nearly all actives have a fitted effect of over 60% in size
Conditions: MCC and control cell lines, CellTiter-Glo viability, 72 h; series mostly up to 46 µM
Inconclusive results are not listed. Calls of active or inactive are those of the source. The call rests on the fitted dose curve; in most records, active means well fitted inhibition curve with a large enough effect; inconclusive means small, poorly fitted or top-dose-only effect; inactive means flat fitted curve, though single readings scatter.
Returns: one label drawn from active, inactive

Study these solved cases before continuing.
1) COc1cc(CC(C)N)cc(OC)c1OC (centres undefined); inactive
2) COc1c2c(cc3c1OCO3)CCN(C)C2; inactive
3) COP(=S)(OC)Oc1ccc(S(=O)(=O)N(C)C)cc1; inactive

Hi team, can someone confirm the assay call for `COc1cccc(C(=O)CCN[C@@H](C)[C@H](O)c2ccccc2)c1` ?
active

====

Examples of compounds with documented activity change, negative = inhibition follow.
Experiment: Primary qHTS to identify inhibitors of SARS-CoV-2 cell entry (AID 1645846); also: nearly all actives have a fitted effect of over 45% in size
Conditions: SARS-CoV-2 pseudovirus cell entry assay, luminescence; at 57.1 µM (top of the series) unless noted
Records with an inconclusive call do not appear.
Expressed in %, but write only the number.

1. CN1C(C(=O)Nc2ccccn2)=C(O)c2ccccc2S1(=O)=O; -89.8
2. CO[C@@H]1[C@@H](OC(N)=O)[C@@H](O)[C@H](Oc2ccc3c(O)c(NC(=O)c4ccc(O)c(CC=C(C)C)c4)c(=O)oc3c2C)OC1(C)C; 0.81
3. CC(C)CN(C[C@@H](OP(=O)(O)O)[C@H](Cc1ccccc1)NC(=O)O[C@H]1CCOC1)S(=O)(=O)c1ccc(N)cc1; -18.7

Measured activity change, negative = inhibition, `Nc1cc(C(Cl)=C(Cl)Cl)c(S(N)(=O)=O)cc1S(N)(=O)=O` : -25

====

Settings: Ebola virus entry assay, green fluorescence channel
Results with a measured potency or affinity are listed apart. Activity calls are given as the source filed them.
Examples of compounds with documented efficacy follow.

1. CC(=O)c1ccc(OCC(=O)N2CCCCC2)cc1; -14.3% (inactive)

Measured efficacy, `CC(=O)NCCCCCC(=O)O` : -20.5% (inactive)

Measured efficacy, `CCn1ccc(NS(=O)(=O)c2ccc(N)cc2)nc1=O` : -11.6% (inactive)

Measured efficacy, `C[C@H](N)C(=O)c1ccccc1` : 31.4% (inactive)

Measured efficacy, `O=S(=O)(O)c1cc(I)c(O)c2ncccc12` : 29.1% (inactive)

Measured efficacy, `Cn1c(=O)c2c(ncn2CCO)n(C)c1=O` : -37.9% (inactive)

Measured efficacy, CN1C(=O)NC(=O)C(C)(C2=CCCCC2)C1=O (stereo not drawn) : 10.3% (inactive)

Measured efficacy, CCOC(=O)C1=C(C)NC(C)=C(C(=O)OC)C1c1cccc([N+](=O)[O-])c1 (stereo not drawn) : 20.7% (inactive)

Measured efficacy, `NCCNCCNCCN` : 15% (inactive)

Measured efficacy, `CC(C)C(=O)Nc1cccc(C(F)(F)F)c1` : 16.7% (inactive)

Measured efficacy, CC(C(=O)O)c1cccc(Oc2ccccc2)c1 (stereo not drawn) : 18.1% (inactive)

Measured efficacy, `O=c1cc[nH]c(=O)[nH]1` : 11.9% (inactive)

Measured efficacy, `Cc1coc2ccccc2c1=O` : -25.1% (inactive)

Measured efficacy, CC(COc1ccccc1)NN (stereo not drawn) : -13% (inactive)

Measured efficacy, `CN1C(C(=O)Nc2ccccn2)=C(O)c2sccc2S1(=O)=O` : -30.7% (inactive)

====

Settings: Ebola virus entry assay, green fluorescence channel
Measured potencies and affinities stand elsewhere.
test readout: efficacy (%)
Expressed in %, but write only the number.

Measured efficacy, `C=CCc1ccc(O)c(OC)c1` : 23.7

====

Settings: Ebola virus entry assay, ratio channel readout
The source made the active and inactive calls.
test readout: outcome

Observe how each entry below is paired with its result.
1. N[C@@H](Cc1cc(I)c(Oc2ccc(O)c(I)c2)c(I)c1)C(=O)O; inactive
2. NC(N)=NC(=O)Cc1c(Cl)cccc1Cl; inactive
3. CN[C@@H]1CCc2[nH]c3ccc(C(N)=O)cc3c2C1; inactive
4. Cc1nnc2n1-c1ccc(Cl)cc1C(c1ccccc1Cl)=NC2; inactive
5. CO[C@H]1C[C@@H]2CC[C@@H](C)[C@@](O)(O2)C(=O)C(=O)N2CCCC[C@@H]2C(=O)O[C@H]([C@H](C)C[C@@H]2CC[C@H](OCCO)[C@H](OC)C2)CC(=O)[C@H](C)C=C(C)[C@@H](O)[C@@H](OC)C(=O)[C@H](C)C[C@H](C)C=CC=CC=C1C; inactive
6. CN[C@H](CC(C)C)C(=O)N[C@H]1C(=O)N[C@@H](CC(N)=O)C(=O)N[C@H]2C(=O)N[C@H]3C(=O)N[C@H](C(=O)N[C@@H](C(=O)O)c4cc(O)cc(O)c4-c4cc3ccc4O)[C@H](O)c3ccc(c(Cl)c3)Oc3cc2cc(c3O[C@@H]2O[C@H](CO)[C@@H](O)[C@H](O)[C@H]2O[C@H]2C[C@](C)(N)C(O)[C@H](C)O2)Oc2ccc(cc2Cl)[C@H]1O (some centres undefined); inactive

Measured outcome, `CCc1cc(C(N)=S)ccn1` : inactive

Measured outcome, `C=CC[C@@H]1C=C(C)C[C@H](C)C[C@H](OC)[C@H]2O[C@@](O)(C(=O)C(=O)N3CCCC[C@H]3C(=O)O[C@H](C(C)=C[C@@H]3CC[C@H](O)[C@H](OC)C3)[C@@H](C)[C@@H](O)CC1=O)[C@@H](C)C[C@@H]2OC` : inactive

Measured outcome, CC(NC(C)(C)C)C(=O)c1cccc(Cl)c1 (centres undefined) : inactive

Measured outcome, `CC(C)CN(C[C@@H](O)[C@H](Cc1ccccc1)NC(=O)O[C@H]1CO[C@H]2OCC[C@H]21)S(=O)(=O)c1ccc(N)cc1` : inactive

Measured outcome, `CCN(CC)C(=O)/C(C#N)=C/c1cc(O)c(O)c([N+](=O)[O-])c1` : inactive

Measured outcome, `CC(C)(S)[C@@H](N)C(=O)O` : inactive

Measured outcome, `CC(C)C[C@H]1C(=O)N2CCC[C@H]2[C@]2(O)O[C@](NC(=O)[C@@H]3C=C4c5cccc6[nH]c(Br)c(c56)C[C@H]4N(C)C3)(C(C)C)C(=O)N12` : inactive

Measured outcome, `OCCOCCN1CCN(C2=Nc3ccccc3Sc3ccccc32)CC1` : inactive

====

Assay: qHTS of pediatric cancer cell lines to identify multiple opportunities for drug repurposing: Primary screen for MG 63 (6-TG R) cells (AID 1347105); also: % is scaled to controls: 0 for no effect and ±100 for the full control effect; nearly all actives have a fitted effect of over 50% in size
Details: MG 63 (6-TG R) viability, CellTiter-Glo, 48 h; series mostly up to 46 µM
Records with an inconclusive call do not appear. Active and inactive are the calls of the source. Calls come from the whole dose curve; as a rule, active = well fitted cell-killing curve with a large enough effect; inconclusive = small, poorly fitted or top-dose-only effect; inactive = no such curve, though single readings can be large or run the other way.
test readout: outcome

Observe how each entry below is paired with its result.
1) CCC1(c2ccc(N)cc2)CCC(=O)NC1=O (stereo not given); inactive
2) C=CCC1(C(C)CC)C(=O)NC(=O)NC1=O (stereo not given); inactive
3) C=CCC1([C@H](C)CCC)C(=O)NC(=O)NC1=O; inactive
4) COP(=S)(OC)SCN1C(=O)c2ccccc2C1=O; inactive

Note: attention shifts to another entry.
Measured outcome, `C#C[C@]1(O)CC[C@H]2[C@@H]3CCC4=CC(=O)CC[C@]4(C)[C@H]3CC[C@@]21C` : inactive

====

Examples of compounds with documented max response follow.
Test system: HEK293
Test: Cytotoxic Profiling of Annotated Libraries Using Quantitative High-Throughput Screening (AID 1296008); also: % is scaled to controls: 0 for no effect and ±100 for the full control effect; nearly all actives have a fitted effect of over 60% in size
Settings: Five cell lines viability, CellTiter-Glo ATP luminescence, 48-72 h; stronger effect = lower value
Inconclusive results are not listed.
Expressed in %, but write only the number.

Observe how each entry below is paired with its result.
1. CCN(CCO)CCn1c(Cc2ccccc2)nc2c1c(=O)n(C)c(=O)n2C; -6.17
2. CCC1(CC)C(=O)C=CNC1=O; 4.85

Note: attention shifts to another entry.
Measured max response, `c1ccc(N2CCNCC2)cc1` : -4.08
